Cited source for all entries: paper PMC12040169

# test_name: in vitro
# applied_conditions: human, hela cells, % viability
Collected viability at 28.5 h, 10 µM values appear next to each entry.
Answer as a quantity: numeral, then unit.

Previously resolved entries follow.
Cn1nnnc1-c1cccc(NC(=O)c2ccc(Oc3ccccc3)cc2)c1 :: 81.6%
CN(C)c1ccc(-c2cn3ccnc3c(NC3CC3)n2)cc1 :: 103%
CC(=O)Nc1c(O)nc(SCC(=O)Nc2ccc(Cl)cc2)[nH]c1=O :: 106%
NC(=O)CCC(NC=O)C(=O)O (stereo not shown) :: 88.4%

Find the recorded viability at 28.5 h, 10 µM belonging to COc1ccc(S(=O)(=O)N2CCC(C(=O)O)CC2)cc1Cl and report it.
94.9%

Find the recorded viability at 28.5 h, 10 µM belonging to COc1cc(CNCCO)cc(Br)c1OCc1cccnc1 [CBK269681C] and report it.
100%

Find the recorded viability at 28.5 h, 10 µM belonging to N#CC1=C(N)Oc2[nH]nc(-c3ccc4ccccc4c3)c2C1c1cn(CC(N)=O)nc1-c1ccccc1 (stereo not shown) and report it.
107%

Find the recorded viability at 28.5 h, 10 µM belonging to COc1cccc(-c2cc(C(=O)NCCCN3CCOCC3)c3ccccc3n2)c1 and report it.
91.7%

Find the recorded viability at 28.5 h, 10 µM belonging to Cc1csc(NC(=O)c2c(C)c(C)n[nH]c2=O)n1 and report it.
84.4%

Find the recorded viability at 28.5 h, 10 µM belonging to O=C(C1C2CCCCC21)N1CCC(c2nnc3n2CCCCC3)CC1 (stereo not shown) and report it.
95.2%
